- test.summary: method code SF-AS, from Smul'skii, S.; Bogatskii, A.; Andronati, S.; Vikhlyaev, Yu.; Zhilina, Z. (1977). Lipophilic nature of quinazolin-2-ones and 1,2-dihydro-3H-1,4-benzodiazepin-2-ones. Otdel. Khim. Nauk., 235(2)369-371.
- condition: pH 7.4
Label key: Met means logD under 3; Not met means logD of 3 or more.

# strict comparison: is reported logD < 3? input = CC(=O)OC1N=C(c2ccccc2)c2cc(Cl)ccc2NC1=O (stereo unspecified)
Met

What do we get for CC(C)C1N=C(c2ccccc2)c2cc(Br)ccc2NC1=O (stereo unspecified) ?
Not met

What do we get for O=C1CN=C(c2ccccc2)c2cc(Br)ccc2N1 ?
Not met

What do we get for CC(C)C1N=C(c2ccccc2)c2cc(Cl)ccc2NC1=O (stereo unspecified) ?
Not met

What do we get for O=c1nc(-c2ccccc2)c2cc(Cl)ccc2[nH]1 ?
Met

What do we get for Cc1ccc2c(c1)=C(c1ccccc1)N(O)CC(=O)N=2 ?
Met
